Molecular target: Free fatty acid receptor 2 (Homo sapiens)
Test: Agonist activity at human FFA2 receptor expressed in CHO cells assessed as inhibition of forskolin-induced cAMP production relative to acetate
Assay type: functional, cell-based
Attribute: Efficacy
metricName: Efficacy (%)

# structureAsSmiles, metricName, numericValue
measured = [
    ("C=CC[C@H](C(=O)Nc1nccs1)c1ccc(Cl)cc1", "Efficacy", 88),
    ("CC(C)[C@H](C(=O)Nc1ccccn1)c1ccc(Cl)cc1", "Efficacy", 92),
    ("O=C(Nc1ncc(F)s1)C1(c2ccc(Cl)cc2)CCCC1", "Efficacy", 88),
]

Data credit: ChEMBL document CHEMBL1153229
